Entries and their MIC90
test system: Staphylococcus aureus; assay: Bactericidal activity against methicillin-resistant Staphylococcus aureus clinical isolate after 24 hrs; format: functional
Parameter: MIC90 (µg/mL)

INSERT INTO measurements (compound, parameter, qualifying_sign, endpoint_value) VALUES
  ('O=C(N[C@H](CO)[C@H](O)c1ccc([N+](=O)[O-])cc1)C(Cl)Cl [CHLORAMPHENICOL]', 'MIC90', '=', 32),
  ('CCCCCCCCCCCC(=O)NCCN', 'MIC90', '>', 1020),
  ('CCCCCCCC/C=C\CCCCCCCC(=O)NCCCN', 'MIC90', '=', 512),
  ('CCCCCCCCCCCCCC(=O)NCCN', 'MIC90', '=', 256);
